tested system: catalytic domain of human collagenase-3 (MMP-13) (Homo sapiens)
Construct: Determining the enzymic activity of the catalytic domain of human collagenase-3 (MMP-13)
experiment notes: Enzymic activity of the catalytic domain of human collagenase-3 (MMP-13), fluorogenic substrate
setup conditions: activated with APMA, pH 7.5, read-out: IC50 MMP13
measured endpoint: IC50 (µM)

Illustrative cases are given below, each with its answer.
# compound, measured result
measured = [
    ("O=C(NCc1ccc2c(c1)CCO2)c1cc(C(=O)NCc2ccc3c(c2)CCO3)ncn1 [Example 22]", 0.009),
    ("O=C(NCc1ccc2c(c1)OCO2)c1cc(C(=O)NCc2ccc3c(c2)OCO3)ncn1 [Example 20]", 0.014),
]

(I) O=C(NCc1ccccc1)c1ccnc(C(=O)NCc2ccccc2)c1 [Example 4]
(II) COc1cccc(CNC(=O)c2cc(C(=O)NCc3cccc(OC)c3)ncn2)c1 [Example 21]
(III) O=C(NCc1cccc(F)c1)c1cc(C(=O)NCc2cccc(F)c2)ncn1 [Example 14]
(IV) O=C(NCc1cccc(C(F)(F)F)c1)c1cc(C(=O)NCc2cccc(C(F)(F)F)c2)ncn1 [Example 11]
Prompt: Task for the reader: rank each entry by its IC50, from the minimum upward. Write out the labels following the order that was asked for.
Completion: II, III, IV, I
(II: 0.01 µM, III: 0.2 µM, IV: 0.3 µM, I: 3.4 µM)
